# Test system: CCRF-CEM leukemia
# assay.procedure: NCI tumour cell line growth inhibition, 48 h
Documented TGI across a set of molecules
Write the value in µM as a bare number.

[
  {
    "structure.smiles.string": "C#Cc1cccc(Nc2nc(Cl)nc3cc(NC(=O)CCl)ccc23)c1",
    "TGI [µM]": 2.47
  }
]

Retrieve TGI measured for O=C(CN(/C=C/C(=O)C(F)(F)F)c1ccc(Cl)cc1)c1ccc(Cl)c(Cl)c1 and print it.
11

====

# Tested on: NCI-H226 lung
# assay.procedure: NCI tumour cell line growth inhibition, 48 h
measurement.kind: GI50

[
  {
    "compound": "N#CC1=C(N)Oc2c(ccc3ccccc23)C1c1cc(=O)oc2ccc(Cl)cc12 (centres undefined)",
    "GI50": "26 µM"
  }
]

Retrieve GI50 measured for CN(C)CCCn1c(=O)c2ccccc2c2cnc3[nH]ccc3c21 and print it.
0.862 µM

Retrieve GI50 measured for O=C(CN(/C=C/C(=O)C(F)(F)F)c1ccc(Cl)cc1)c1ccc(Cl)c(Cl)c1 and print it.
12.5 µM

Retrieve GI50 measured for C=C1C(O)C2CC(C)(CO)C(=O)C2=C(CC(C)C)C12CC2 (centres undefined) and print it.
> 100 µM

Retrieve GI50 measured for CCCc1cc(=O)n2c(C(=O)Nc3ccc(F)cc3)c(C(=O)Nc3ccc(F)cc3)sc2n1 and print it.
1.71 µM

Retrieve GI50 measured for CCCCCC(O)C(O)CCC[C@H](O)[C@H]1CC[C@H]([C@H]2CC[C@H]([C@H](O)CCCCCCCCCCCCC3=C[C@H](C)OC3=O)O2)O1 (some centres undefined) and print it.
5.25 µM

====

# Test system: U251 CNS
# assay.procedure: NCI tumour cell line growth inhibition, 48 h
measurement.kind: TGI

[
  {
    "compound": "O=C(/C=C/C=C/c1ccccc1)c1ccco1",
    "measurement.kind": "TGI",
    "data.value": "24.9 µM"
  },
  {
    "compound": "S=C1SC(=Nc2ccccc2)C(=Nc2ccccc2)N1c1ccc2ccccc2c1",
    "measurement.kind": "TGI",
    "data.value": "> 100 µM"
  },
  {
    "compound": "COc1ccccc1NC(=O)C1=C(C)NC(C)=C(C(=O)Nc2ccccc2OC)C1/C=C/c1ccccc1",
    "measurement.kind": "TGI",
    "data.value": "> 100 µM"
  },
  {
    "compound": "CC(C)(C)C1=C(Br)C(O)(C(C)(C)C)OP1(=O)c1ccccc1 (stereo unspecified)",
    "measurement.kind": "TGI",
    "data.value": "> 100 µM"
  },
  {
    "compound": "Cc1cc(N(CCOS(C)(=O)=O)CCOS(C)(=O)=O)ccc1C(=O)O",
    "measurement.kind": "TGI",
    "data.value": "> 100 µM"
  },
  {
    "compound": "O=C(O)c1ccccc1C1c2ccccc2Oc2ccccc21",
    "measurement.kind": "TGI",
    "data.value": "> 100 µM"
  },
  {
    "compound": "CS(=O)(=O)Nc1cccc(-c2ccc3ncnc(Nc4ccc(F)c(Cl)c4)c3c2)c1",
    "measurement.kind": "TGI",
    "data.value": "3.34 µM"
  },
  {
    "compound": "CN(C)CC1CC/C(=C\\c2ccc3c(c2)OCO3)C1=O (stereo unspecified)",
    "measurement.kind": "TGI",
    "data.value": "36.1 µM"
  }
]

Retrieve TGI measured for O=C(NCCCc1cn[nH]c1)c1ccc(-c2ccncc2)c(C#Cc2ccc(F)cc2)c1 and print it.
> 100 µM

Retrieve TGI measured for CN=C1C=CC(=C(c2ccc(N(C)C)cc2)c2ccc(N(C)C)cc2)C=C1 and print it.
0.682 µM

Retrieve TGI measured for O=C(N=Nc1ccccc1Cl)NNc1ccccc1Cl and print it.
> 100 µM

Retrieve TGI measured for C=C1C(C)C2C(Cc3ccccc3)NC(=O)C23OC(=O)/C=C\CC(=O)CCC(C)C/C=C/C3C1O (stereo unspecified) and print it.
10.7 µM

Retrieve TGI measured for CCOC(=O)c1cc(-c2ccc(-c3cc(C(=O)OCC)c(C#N)c(N)c3C#N)cc2)c(C#N)c(N)c1C#N and print it.
> 100 µM

Retrieve TGI measured for CC1=C(C(=O)Nc2ccccc2)C(c2ccccc2Cl)C(C(=O)Nc2ccccc2)=C(C)N1 and print it.
35.8 µM

Retrieve TGI measured for NC(N)=NC1C(O)C(O)C(O)C(N=C(N)N)C1O (stereo unspecified) and print it.
> 100 µM

Retrieve TGI measured for Oc1ccc(-c2nc3ccccc3s2)cc1 and print it.
> 100 µM

Retrieve TGI measured for CC(C)c1cc(C(C)C)c(S(=O)(=O)N=[N+]=[N-])c(C(C)C)c1 and print it.
> 100 µM

Retrieve TGI measured for CC(=O)OC12C=C(C)C(C(C)C1)C1C(=O)N(CCN3CCCCC3)C(=O)C12 (stereo unspecified) and print it.
> 50 µM

Retrieve TGI measured for Cc1cc(-c2c(F)cc3c4nn([C@H]5CC[C@@H](N(C)C)CC5)c(=O)c-4cn(C4CC4)c3c2F)cc(C)n1 and print it.
0.814 µM

Retrieve TGI measured for CCCCCC(=O)Nc1nc2nc[nH]c2c(=O)[nH]1 and print it.
> 100 µM

Retrieve TGI measured for CCSC1=CC2(O)N(CCc3ccc(OC)c(OC)c3)C(=O)CC2(C(=O)OC)CC1=O (stereo unspecified) and print it.
51.7 µM

====

# System: UACC-62 melanoma
# assay.procedure: NCI tumour cell line growth inhibition, 48 h
Documented TGI across a set of molecules
Write the value in µM as a bare number.

Example cases with answers are listed next.
[
  {
    "molecule": "O=C(c1ccc(Cl)cc1)N1CCN=C1c1cc2ccccc2c2ccccc12",
    "assayed.target": "UACC-62 melanoma",
    "measurement.kind": "TGI",
    "data.value": 27.7
  },
  {
    "molecule": "CCC[CH2][Sn]([CH2]CCC)([S]C#N)[S]C#N",
    "assayed.target": "UACC-62 melanoma",
    "measurement.kind": "TGI",
    "data.value": 2
  }
]

Retrieve TGI measured for COc1cccc(C2c3cc4c(cc3OC(Nc3ccccc3)C2C)OCO4)c1O (configuration not stated) and print it.
29

Retrieve TGI measured for CCN(CC)CCCC(C)Nc1cc(-c2cccc(OC(F)(F)F)c2)nc2ccc(N3CCCC3)cc12 (configuration not stated) and print it.
20.9

====

# Tested on: K-562 leukemia
# assay.procedure: NCI tumour cell line growth inhibition, 48 h; in the data active = GI50 below about 0.43 µM; inactive = the rest
Write down the outcome that applies. Available outcomes: yes (1) (active), no (0) (inactive)

Solved cases (4 shown):
[
  {
    "molecule": "CCCCCCCCCCCCC(O)c1ccco1 (stereo not given)",
    "classification": "no (0)"
  },
  {
    "molecule": "Cc1cc(C)c(C#N)c(Sc2nc(C)c([N+](=O)[O-])c(C)c2C#N)n1",
    "classification": "no (0)"
  },
  {
    "molecule": "CCCCC#Cc1c(I)n(C)c(=O)[nH]c1=O",
    "classification": "no (0)"
  },
  {
    "molecule": "N#CC1=C(N)Oc2c(ccc3ccccc23)C1c1cc(=O)oc2ccc(Cl)cc12 (stereo not given)",
    "classification": "yes (1)"
  }
]

Which result was noted for this molecule in the test: Cn1cc(C2=C(c3c[nH]c4ccccc34)C(=O)NC2=O)c2ccccc21
no (0)

Which result was noted for this molecule in the test: COc1ccc(-c2cncn2-c2cc(OC)c(OC)c(OC)c2)cc1
no (0)

Which result was noted for this molecule in the test: Cc1ccc(N=C[N-]c2ccc(C)cc2)cc1.Cc1ccc(N=C[N-]c2ccc(C)cc2)cc1.O=C([O-])C(F)(F)F.O=C([O-])C(F)(F)F.[OH3+].[OH3+].[Rh+2].[Rh+2]
no (0)

Which result was noted for this molecule in the test: CNCCCNc1nc2ccccc2c2c(=O)c3cc(OC)ccc3sc12
no (0)

Which result was noted for this molecule in the test: COc1cc(OC)cc(C2C3=C(COC3=O)Nc3cc(OC)ccc32)c1 (stereo not given)
yes (1)

Which result was noted for this molecule in the test: CCCOC(=O)c1c(C)n(C)c2scc[n+]12
no (0)

====

# Tested on: LOX IMVI melanoma
# assay.procedure: NCI tumour cell line growth inhibition, 48 h
Documented TGI across a set of molecules
Write the value in µM as a bare number.

Retrieve TGI measured for C#Cc1cccc(Nc2nc(Cl)nc3cc(NC(=O)CCl)ccc23)c1 and print it.
0.809

Retrieve TGI measured for CC/C(Cc1ccccc1)=C(\c1ccc(OCCN2CCCC2)cc1)c1ccc(OC(=O)NCc2ccccc2)cc1 and print it.
3.1

Retrieve TGI measured for O=C1CSC(c2ccccc2Cl)N1c1nnc(Cn2cnnc2)o1 (stereo unspecified) and print it.
21

Retrieve TGI measured for CN(C)CCCn1c(=O)c2ccccc2c2cnc3[nH]ccc3c21 and print it.
3.27

Retrieve TGI measured for O=C(CN(/C=C/C(=O)C(F)(F)F)c1ccc(Cl)cc1)c1ccc(Cl)c(Cl)c1 and print it.
16.6

Retrieve TGI measured for COc1cccc2cc(N(C)c3nc(C)nc4c3CCC4)ccc12 and print it.
13.8

Retrieve TGI measured for CSc1cnc2ccccc2c1Sc1c[nH]c2ccccc2c1=O and print it.
67.2

Retrieve TGI measured for Cc1cc(C)c(C#N)c(Sc2nc(C)c([N+](=O)[O-])c(C)c2C#N)n1 and print it.
3.44

Retrieve TGI measured for C#C[C@@]1(O)[C@@H](CO)O[C@@H](n2cc(I)c3c(N)ncnc32)[C@@H]1O and print it.
1.22

Retrieve TGI measured for ClCc1ccccc1Cn1cnc2ncnc(Cl)c21 and print it.
3.07

Retrieve TGI measured for CCCCCCCCCCCCC(O)c1ccco1 (stereo unspecified) and print it.
32.2

Retrieve TGI measured for CC1=CCC[C@H]2[C@](C)(CC3=CC(=O)C(SCC(C)C)=CC3=O)[C@@H](C)CC[C@]12C and print it.
24.6

Retrieve TGI measured for Cc1cc(-c2c(F)cc3c4nn([C@H]5CC[C@@H](N(C)C)CC5)c(=O)c-4cn(C4CC4)c3c2F)cc(C)n1 and print it.
0.571

Numbers sourced from PubChem BioAssay (NCI).
